target: Glucocorticoid receptor (Homo sapiens); assay: Transcriptional repression in HepG2 cells expressing human glucocorticoid receptor; type: functional, cell-based
Sequence (P04150 whole entry): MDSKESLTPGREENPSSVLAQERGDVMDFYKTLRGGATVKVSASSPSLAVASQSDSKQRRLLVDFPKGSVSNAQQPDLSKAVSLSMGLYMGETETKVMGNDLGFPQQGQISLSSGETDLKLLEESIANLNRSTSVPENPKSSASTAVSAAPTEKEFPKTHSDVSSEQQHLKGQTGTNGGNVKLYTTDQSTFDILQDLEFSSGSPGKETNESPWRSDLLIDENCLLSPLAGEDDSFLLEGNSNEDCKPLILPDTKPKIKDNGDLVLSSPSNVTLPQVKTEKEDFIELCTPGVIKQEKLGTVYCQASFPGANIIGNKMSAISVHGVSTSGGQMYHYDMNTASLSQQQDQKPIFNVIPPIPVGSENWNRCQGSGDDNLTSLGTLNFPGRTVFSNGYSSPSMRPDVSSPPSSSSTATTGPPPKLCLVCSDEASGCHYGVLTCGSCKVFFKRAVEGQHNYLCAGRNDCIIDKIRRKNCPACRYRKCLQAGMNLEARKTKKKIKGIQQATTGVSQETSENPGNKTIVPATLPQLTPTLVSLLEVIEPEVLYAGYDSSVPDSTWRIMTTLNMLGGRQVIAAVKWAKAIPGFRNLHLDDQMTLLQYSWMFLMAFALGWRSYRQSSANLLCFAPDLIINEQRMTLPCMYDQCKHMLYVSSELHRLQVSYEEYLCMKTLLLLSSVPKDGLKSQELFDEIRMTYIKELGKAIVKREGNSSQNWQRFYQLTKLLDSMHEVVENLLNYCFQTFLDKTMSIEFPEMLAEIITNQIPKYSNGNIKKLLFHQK
Below, each entry is listed alongside its reported EC50.
State the answer as a number, implicitly in nM.

Example results:
[
  {
    "compound": "C=CCC1Oc2cccc(NC)c2-c2ccc3c(c21)C(C)=CC(C)(C)N3 (stereo not drawn)",
    "reading": 19
  },
  {
    "compound": "C=CCC1Oc2ccc(OCC#N)c(OC)c2-c2ccc3c(c21)C(C)=CC(C)(C)N3 (stereo not drawn)",
    "reading": 130
  },
  {
    "compound": "C=CCC1Oc2cccc(CO)c2-c2ccc3c(c21)C(C)=CC(C)(C)N3 (stereo not drawn)",
    "reading": 19
  },
  {
    "compound": "C=CCC1Oc2ccc(O)c(Cl)c2-c2ccc3c(c21)C(C)=CC(C)(C)N3 (stereo not drawn)",
    "reading": 5
  },
  {
    "compound": "C=CCC1Oc2cccc(CN)c2-c2ccc3c(c21)C(C)=CC(C)(C)N3 (stereo not drawn)",
    "reading": 467
  }
]

C=CCC1Oc2cccc(SC)c2-c2ccc3c(c21)C(C)=CC(C)(C)N3 (stereo not drawn) yielded EC50 of 18

Summary for this compound, C=CCC1Oc2ccc(Cl)c(OC)c2-c2ccc3c(c21)C(C)=CC(C)(C)N3 (stereo not drawn) : EC50 is 94

For C=CCOc1ccc2c(c1OC)-c1ccc3c(c1C(CC=C)O2)C(C)=CC(C)(C)N3 (stereo not drawn) the compound record lists EC50 as 140

Where do the numbers come from? From ChEMBL document CHEMBL1144889.
